System: SR leukemia
Assay: NCI tumour cell line growth inhibition, 48 h
The following molecules are shown together with reported TGI values.
reported-endpoint: TGI

# molecule, experimental-system, reported-value
measured = [
    ("O=C(Nc1ccc(-c2ccccc2)cc1)C1CCN(S(=O)(=O)c2ccccc2Cl)CC1", "SR leukemia", "> 100 µM"),
    ("O=C(O)c1ccc(S(=O)(=O)c2ccccc2[N+](=O)[O-])cc1", "SR leukemia", "> 10 µM"),
    ("Cc1ccc(/C(O)=C/C(=O)C(=O)/C=C(\\O)c2ccc(C)cc2C)c(C)c1", "SR leukemia", "4.8 µM"),
    ("COC(=O)N/N=C(\\C)C(CN1CCCCC1)C(C1=C(O)c2ccccc2OC1)c1ccccc1 (configuration not stated)", "SR leukemia", "> 100 µM"),
    ("CC1=COC(C)(C=C(C#N)C#N)CC1 (configuration not stated)", "SR leukemia", "> 100 µM"),
    ("O=C1c2ccccc2C(=O)N1Cc1ccccc1-c1c2nc(c(-c3ccccc3CN3C(=O)c4ccccc4C3=O)c3ccc([nH]3)c(-c3ccccc3CN3C(=O)c4ccccc4C3=O)c3nc(c(-c4ccccc4CN4C(=O)c5ccccc5C4=O)c4ccc1[nH]4)C=C3)C=C2", "SR leukemia", "> 100 µM"),
    ("O=C1[C@H]2ON(c3ccccc3)C(c3ccc(Cl)cc3)[C@H]2C(=O)N1c1ccc(Cc2ccc(N3C(=O)[C@@H]4ON(c5ccccc5)C(c5ccc(Cl)cc5)[C@@H]4C3=O)cc2)cc1 (some centres not stated)", "SR leukemia", "> 100 µM"),
    ("COc1ccc2ncn(-c3cc(O[C@H](C)c4ccccc4Cl)c(C(N)=O)s3)c2c1", "SR leukemia", "1.53 µM"),
    ("Cc1ccn2c(=O)cc(-c3ccccc3)nc2c1", "SR leukemia", "> 100 µM"),
    ("C1CNCCNCCN1", "SR leukemia", "> 100 µM"),
    ("NC1=NS(=O)(=O)Nc2nc(-c3ccc(Cl)cc3)c(-c3ccc(Cl)cc3)nc21", "SR leukemia", "> 100 µM"),
    ("Cc1ccc2nc(Cl)c(/C=N/N3C(=O)/C(=C/c4ccccc4S)N=C3c3ccccc3)cc2c1", "SR leukemia", "60.8 µM"),
]
